Taken from PubChem BioAssay AID1845204.

# System: HSSY-II tumor spheroid viability
# Procedure summary: Anticancer human tumor HSSY-II cell line growth inhibition;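 note: spheroids exposed to compounds for seven days before reading; percent of DMSO vehicle control viability so 100% = untreated level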
# Conditions: second compound 94.9 pM; first compound 3.16 µM; active compounds read low; spheroids with HUVEC and MSC
Listing of entries alongside the reported viability, T/C.
Endpoint label: viability, T/C

INSERT INTO results (compound, observed_measurement) VALUES
  ('CC(C)n1c(=O)n(C)c2cnc3cc(F)c(-c4ccc(OCCCN5CCCCC5)nc4)cc3c21 + COc1cc2c(cc1O)CCNC21CSC2c3c(OC(C)=O)c(C)c4c(c3C(COC1=O)N1C(O)C3Cc5cc(C)c(OC)c(O)c5C(C21)N3C)OCO4', '73.3%'),
  ('[2H]c1nc(C)nc([2H])c1-c1cc(NC[C@@H](C)c2cccc3c(C(=O)NC)ccnc23)ncn1 + COc1cc2c(cc1O)CCNC21CSC2c3c(OC(C)=O)c(C)c4c(c3C(COC1=O)N1C(O)C3Cc5cc(C)c(OC)c(O)c5C(C21)N3C)OCO4', '92.1%'),
  ('CC1COCCN1c1cc(-c2ccnn2C)c2ccnc(-c3ccn[nH]3)c2n1 (stereo unspecified) + COc1cc2c(cc1O)CCNC21CSC2c3c(OC(C)=O)c(C)c4c(c3C(COC1=O)N1C(O)C3Cc5cc(C)c(OC)c(O)c5C(C21)N3C)OCO4', '3.13%'),
  ('Cc1cc(C)c(CNC(=O)c2cc(-c3ccc(CN4CCOCC4)cc3)cc3c2cnn3C2CCCC2)c(=O)[nH]1 + COc1cc2c(cc1O)CCNC21CSC2c3c(OC(C)=O)c(C)c4c(c3C(COC1=O)N1C(O)C3Cc5cc(C)c(OC)c(O)c5C(C21)N3C)OCO4', '79.4%'),
  ('COc1ccc([C@@H](O)c2cc(-c3ncnc4cc(N5CCOCC5)ccc34)c(F)cc2Cl)nn1 + COc1cc2c(cc1O)CCNC21CSC2c3c(OC(C)=O)c(C)c4c(c3C(COC1=O)N1C(O)C3Cc5cc(C)c(OC)c(O)c5C(C21)N3C)OCO4', '7.08%'),
  ('COc1cc(C)[nH]c(=O)c1CN1CCc2c(Cl)cc(C(OC)C3COC3)c(Cl)c2C1=O (stereo unspecified) + COc1cc2c(cc1O)CCNC21CSC2c3c(OC(C)=O)c(C)c4c(c3C(COC1=O)N1C(O)C3Cc5cc(C)c(OC)c(O)c5C(C21)N3C)OCO4', '81.4%');
